assay.protocol: Solubility of Compound I sodium salt forms in solvents and binary solvent systems
Assay type: physicochemical
run.parameters: organic solvent or mixture, thermodynamic from solid; IPA, 60° C.; read-out: Solubility
value.type: solubility

[ask] Name the recorded solubility for O=C(O)c1cc(-c2ccc(OC3CC3)c(Cl)c2)ncn1 [Compound I sodium Pattern A] .
[reply] < 1100 µg/mL

###

assay.protocol: Solubility of Compound I sodium salt forms in solvents and binary solvent systems
Assay type: physicochemical
run.parameters: organic solvent or mixture, thermodynamic from solid; Isopropanol/water, 91:9 v/v, 55° C.; read-out: Solubility
value.type: solubility

[ask] Consider the compound O=C(O)c1cc(-c2ccc(OC3CC3)c(Cl)c2)ncn1 [Compound I sodium Form B] and give its measured solubility.
[reply] < 2 mg/mL

###

Each entry below carries its reported DVS weight gain.
assay.protocol: Dynamic vapor sorption/desorption (DVS)
Type: physicochemical
run.parameters: from about 5 to about 95% RH

Solved entries:
# molecule, DVS weight gain
measured = [
    ("O=C(O)c1cc(-c2ccc(OC3CC3)c(Cl)c2)ncn1 [Compound I diethylamine Material A]", "~2.12%"),
    ("O=C(O)c1cc(-c2ccc(OC3CC3)c(Cl)c2)ncn1 [Compound I diethanolamine Form A]", "~0.48%"),
    ("O=C(O)c1cc(-c2ccc(OC3CC3)c(Cl)c2)ncn1 [Compound I tromethamine Form A]", "~0.25%"),
]

Moving on to the next molecule.
[ask] What value of measured DVS weight gain is listed for O=C(O)c1cc(-c2ccc(OC3CC3)c(Cl)c2)ncn1 [Compound I sodium Form B] ?
[reply] ~5.39%

###

assay.protocol: Solubility of Compound I sodium salt forms in solvents and binary solvent systems
Format: physicochemical
run.parameters: organic solvent or mixture, thermodynamic from solid; Ethanol, 55° C.; read-out: Solubility
value.type: solubility

[ask] Reported solubility, molecule O=C(O)c1cc(-c2ccc(OC3CC3)c(Cl)c2)ncn1 [Compound I sodium Form B] : ____
[reply] < 2000 µg/mL

###

assay.protocol: Solubility of Compound I sodium salt forms in solvents and binary solvent systems
Assay type: physicochemical
run.parameters: organic solvent or mixture, thermodynamic from solid; c-Hexane, 60° C.; read-out: Solubility
value.type: solubility

[ask] // query solubility value for entry O=C(O)c1cc(-c2ccc(OC3CC3)c(Cl)c2)ncn1 [Compound I sodium Pattern A]
[reply] < 1200 µg/mL

###

assay.protocol: Solubility of Compound I sodium salt forms in solvents and binary solvent systems
Format: physicochemical
run.parameters: organic solvent or mixture, thermodynamic from solid; BuOH, 60° C.; read-out: Solubility
value.type: solubility

[ask] Fill blank: measured solubility of the molecule O=C(O)c1cc(-c2ccc(OC3CC3)c(Cl)c2)ncn1 [Compound I sodium Pattern A] is ____.
[reply] < 1200 µg/mL

###

assay.protocol: Solubility of Compound I sodium salt forms in solvents and binary solvent systems
Assay type: physicochemical
run.parameters: organic solvent or mixture, thermodynamic from solid; MIBK, 60° C.; read-out: Solubility
value.type: solubility

[ask] I would be grateful if you could share the reported solubility for O=C(O)c1cc(-c2ccc(OC3CC3)c(Cl)c2)ncn1 [Compound I sodium Pattern A] .
[reply] < 1200 µg/mL

###

assay.protocol: Solubility of Compound I sodium salt forms in solvents and binary solvent systems
Type: physicochemical
run.parameters: organic solvent or mixture, thermodynamic from solid; Isopropanol, 55° C.; read-out: Solubility
value.type: solubility

[ask] Name the recorded solubility for O=C(O)c1cc(-c2ccc(OC3CC3)c(Cl)c2)ncn1 [Compound I sodium Form B] .
[reply] < 2000 µg/mL
